# measurement_target: T1, PUF4 RNA-binding domain (Saccharomyces cerevisiae, UniProt P25339 537-888)
# T1 sequence: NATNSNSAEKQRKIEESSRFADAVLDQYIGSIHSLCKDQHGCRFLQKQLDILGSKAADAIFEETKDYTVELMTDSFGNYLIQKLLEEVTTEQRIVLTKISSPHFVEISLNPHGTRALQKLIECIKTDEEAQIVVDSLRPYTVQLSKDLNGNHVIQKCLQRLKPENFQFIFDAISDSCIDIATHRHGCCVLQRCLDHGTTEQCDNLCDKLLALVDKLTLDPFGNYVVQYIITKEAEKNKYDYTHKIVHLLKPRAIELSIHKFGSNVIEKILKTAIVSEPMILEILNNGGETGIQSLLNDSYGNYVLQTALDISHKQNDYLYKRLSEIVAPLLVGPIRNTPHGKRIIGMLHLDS
# protocol_notes: Mg; RNA-MaP; 20 mM Na-HEPES pH 7.4, 30 mM KOAc, 0.75 mM MgCl2, 0.1% Tween-20, 5% glycerol, 0.1 mg/mL BSA, 2 mM DTT; 25 C; 0.0125-409.6 nM protein
# condition_description: tags: N-His6-TEV cleaved; C-SNAP kept, Cy3B-labelled; label: tethered on chip by stalled RNA polymerase
Rule for this label: condition met means Kd is less than 500 nM; condition not met means Kd is at least 500 nM.

[[record]]
binder = "UCUCUUUGACACUUAUUAUCUCUCUU (ssRNA) [Id_ii_S1_P5E.4_K5.3_C5.2_[C-2T]_[T-1G]_H5.3_A5.1_F5.1_T5.2_[A12C]]"
assigned_category = "condition not met"

[[record]]
binder = "Ia_S2_P4E.1_K4.1_C4.1_H4.1_[G2C]_A4.1_F4.1_T4.1 (ssRNA) RNA: UUUGAUUAAUAUGAUAUCGUUCUUUCUUCUAUAUUAUUCUUUCUCGAUAUCAUAUUAAUCUUU"
assigned_category = "condition met"

[[record]]
binder = "UCUCUUUGUAACACUCUCUU (ssRNA) [Ic_S1_P3E.1_K3.1_C3.1_H3.1_A3.1_[T5A]_[A6C]_F3.1_[T7A]_[A8C]_T3.1]"
assigned_category = "condition not met"

[[record]]
binder = "UCUCUUUGUUCUCAUAUUAUCUCUU (ssRNA) [Ie_S1_P4E.1_K4.1_C4.1_H4.1_[+3TCTC]_A4.1_F4.1_T4.1]"
assigned_category = "condition met"

[[record]]
binder = "Ic_S4_P4E.1_K4.1_C4.1_H4.1_A4.1_[T5C]_[A6C]_[T7G]_F4.1_[A9T]_T4.1 (ssRNA) RNA: UUUGACAACUGAUCGUUCUUUCUUGUACCGUUUUCUUUCUCGAUCAGUUGUCUUU"
assigned_category = "condition met"


Let us examine a further case.
In the record for UCUCUUUGUACCCCUCUCUCUU (ssRNA) [Ic_S1_P5E.1_K5.1_C5.1_H5.1_A5.1_[T5C]_[T6C]_[A7C]_F5.1_[T8C]_[A10C]_T5.1] , is Kd less than 500 nM?
condition not met
